# Tested on: Putative P2Y purinoceptor 10 (Mus musculus)
# Run description: Agonist activity at mouse P2Y10 expressed in HEK293 cells co-transfected with AP-TGFalpha/Galphaq/i1 assessed as induction of ectodomain shedding of membrane bound AP-TGFalpha after 1 hr by p-NPP substrate based microplate reader analysis relative to positive control
# Type: cell-based
# Assay setup: filed as agonist
Test readout: fold change (FC)

Observe how each entry below is paired with its result.
CCCCCCCC/C=C\CCCCCCCC(=O)O[C@H](C)COP(=O)(O)OC[C@H](N)C(=O)O
0.02
C[C@H](COP(=O)(O)OC[C@H](N)C(=O)O)OC(=O)CCc1ccccc1OCc1cccc(Oc2ccccc2)c1
0.0099
CCCCCCCC/C=C\CCCCCCCC(=O)OC[C@@H](COCc1ccccc1)OP(=O)(O)OC[C@H](N)C(=O)O
0.00075
CCCCCCCCCCCOc1ccccc1CCC(=O)O[C@H]1COCC[C@@H]1OP(=O)(O)OC[C@H](N)C(=O)O
0.0085
CCCCCCCC/C=C\CCCCCCCC(=O)O[C@H](COC)COP(=O)(O)OC[C@H](N)C(=O)O
0.0088

I: C#CCOC[C@H](COC(=O)CCCCCCC/C=C\CCCCCCCC)OP(=O)(O)OC[C@H](N)C(=O)O
II: CCCCCCCC/C=C\CCCCCCCC(=O)OCCCCCOP(=O)(O)OC[C@H](N)C(=O)O
// pick larger fold change (FC) from pair: I vs II Respond with the label that goes with your answer.
II

----------
# Tested on: G protein-coupled receptor 34a (Danio rerio)
# Sequence (Q6XCC7 whole entry, the tested form may be a part): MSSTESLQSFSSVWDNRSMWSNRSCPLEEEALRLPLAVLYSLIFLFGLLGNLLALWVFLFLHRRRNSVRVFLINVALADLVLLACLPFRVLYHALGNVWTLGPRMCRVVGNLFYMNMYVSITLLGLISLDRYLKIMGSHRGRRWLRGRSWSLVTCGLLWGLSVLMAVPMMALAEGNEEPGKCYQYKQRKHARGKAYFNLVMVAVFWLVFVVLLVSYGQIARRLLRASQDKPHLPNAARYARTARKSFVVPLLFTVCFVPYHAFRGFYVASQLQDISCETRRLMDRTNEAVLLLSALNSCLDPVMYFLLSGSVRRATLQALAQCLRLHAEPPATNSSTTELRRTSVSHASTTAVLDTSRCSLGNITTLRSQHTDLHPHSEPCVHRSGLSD
# Run description: Agonist activity at zebrafish GPR34 type a expressed in HEK293 cells co-transfected with AP-TGFalpha/Galphaq/i1 assessed as induction of ectodomain shedding of membrane bound AP-TGFalpha after 1 hr by p-NPP substrate based microplate reader analysis
Test readout: pEC50
Please keep in mind that pEC50 is minus log10 of the molar concentration; only the number is needed.

CCCCCCCCCCCOc1ccccc1CCC(=O)O[C@@H]1CCOC[C@H]1OP(=O)(O)OC[C@H](N)C(=O)O
6.29

Read off the recorded pEC50 for CCCCCCCC/C=C\CCCCCCCC(=O)OC[C@@H](O)COP(=O)(O)OC[C@H](N)C(=O)O
6.89

----------
# Tested on: UniProt Q8BFU7
# Run description: Agonist activity at mouse P2Y10 expressed in HEK293 cells co-transfected with AP-TGFalpha/Galphaq/i1 assessed as induction of ectodomain shedding of membrane bound AP-TGFalpha after 1 hr by p-NPP substrate based microplate reader analysis relative to control
# Assay type: cell-based
Calls of active or inactive are those of the source. The calls are words filed in the database; no cut-off is given here.
Test readout: Emax

Observe how each entry below is paired with its result.
CCCCCCCC/C=C\CCCCCCCC(=O)OC[C@@H](O)COP(=O)(O)OC[C@H](N)C(=O)O
13.6%
CCCCCCCCCCCOc1ccccc1CCC(=O)OC1COCCC1OP(=O)(O)OC[C@H](N)C(=O)O (single isomer, unassigned)
8.6%
CCCCCCCC/C=C\CCCCCCCC(=O)OC[C@@H](COCCC)OP(=O)(O)OC[C@H](N)C(=O)O
inactive
CCCCCCCC/C=C\CCCCCCCC(=O)O[C@@H](C)COP(=O)(O)OC[C@H](N)C(=O)O
11.6%
CCCCCCCC/C=C\CCCCCCCC(=O)OCCOP(=O)(O)OC[C@H](N)C(=O)O
10.6%

Read off the recorded Emax for CCCCCCCC/C=C\CCCCCCCC(=O)OC[C@@H](COCC)OP(=O)(O)OC[C@H](N)C(=O)O
inactive

Read off the recorded Emax for CCCCCCCCCCCOc1ccccc1CCC(=O)O[C@@H]1COCCC1OP(=O)(O)OC[C@H](N)C(=O)O (single isomer, unassigned)
12%

Read off the recorded Emax for N[C@@H](COP(=O)(O)OCCOC(=O)CCc1ccccc1OCc1cccc(Oc2ccccc2)c1)C(=O)O
20.8%

----------
# Tested on: Probable G-protein coupled receptor 34 (Mus musculus)
# Run description: Agonist activity at mouse GPR34 expressed in HEK293 cells co-transfected with AP-TGFalpha/Galphaq/i1 assessed as induction of ectodomain shedding of membrane bound AP-TGFalpha after 1 hr by p-NPP substrate based microplate reader analysis relative to control
# Assay type: cell-based
Calls of active or inactive are those of the source. No cut-off for these calls is given here.
Test readout: Emax

Observe how each entry below is paired with its result.
N[C@@H](COP(=O)(O)OCCOC(=O)CCc1ccccc1OCc1cccc(Oc2ccccc2)c1)C(=O)O
12.4%
CCCCCCCCCCCOc1ccccc1CCC(=O)O[C@@H]1COCCC1OP(=O)(O)OC[C@H](N)C(=O)O (single isomer, unassigned)
6.4%
CCCCCCCC/C=C\CCCCCCCC(=O)OCCCCOP(=O)(O)OC[C@H](N)C(=O)O
4.4%
CCCCCCCC/C=C\CCCCCCCC(=O)OC[C@H](COC)OP(=O)(O)OC[C@H](N)C(=O)O
7.5%
C[C@H](COP(=O)(O)OC[C@H](N)C(=O)O)OC(=O)CCc1ccccc1OCc1cccc(Oc2ccccc2)c1
12%
CCCCCCCC/C=C\CCCCCCCC(=O)OC[C@@H](COCCC)OP(=O)(O)OC[C@H](N)C(=O)O
12.2%
CCCCCCCC/C=C\CCCCCCCC(=O)OC[C@@H](C)OP(=O)(O)OC[C@H](N)C(=O)O
12.8%
CCCCCCCC/C=C\CCCCCCCC(=O)O[C@@H](C)COP(=O)(O)OC[C@H](N)C(=O)O
inactive

Read off the recorded Emax for CCCCCCCCCCCOc1ccccc1CCC(=O)O[C@H]1CCOC[C@H]1OP(=O)(O)OC[C@H](N)C(=O)O
inactive

Read off the recorded Emax for CCCCCCCC/C=C\CCCCCCCC(=O)OCCCCCOP(=O)(O)OC[C@H](N)C(=O)O
4.6%

Read off the recorded Emax for CCCCCCCCCCCOc1ccccc1CCC(=O)O[C@H]1COCC[C@@H]1OP(=O)(O)OC[C@H](N)C(=O)O
inactive

Read off the recorded Emax for C#CCOC[C@H](COC(=O)CCCCCCC/C=C\CCCCCCCC)OP(=O)(O)OC[C@H](N)C(=O)O
12.6%

Read off the recorded Emax for CCCCCCCCCCCOc1ccccc1CCC(=O)O[C@H]1CCOC[C@@H]1OP(=O)(O)OC[C@H](N)C(=O)O
inactive

----------
# Tested on: UniProt:Q9R1K6
# Sequence (Q9R1K6 whole entry, the tested form may be a part): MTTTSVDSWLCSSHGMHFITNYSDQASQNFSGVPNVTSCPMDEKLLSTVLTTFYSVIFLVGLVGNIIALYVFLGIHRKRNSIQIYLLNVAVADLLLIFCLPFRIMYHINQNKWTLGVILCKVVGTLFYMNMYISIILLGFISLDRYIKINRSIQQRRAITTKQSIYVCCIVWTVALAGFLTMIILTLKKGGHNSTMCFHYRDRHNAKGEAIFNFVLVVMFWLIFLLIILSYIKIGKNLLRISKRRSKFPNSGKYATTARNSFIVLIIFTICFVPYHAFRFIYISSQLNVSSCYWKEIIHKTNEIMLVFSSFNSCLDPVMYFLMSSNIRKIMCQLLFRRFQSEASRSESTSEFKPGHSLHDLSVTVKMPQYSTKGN
# Run description: Agonist activity at mouse GPR34 expressed in HEK293 cells co-transfected with AP-TGFalpha/Galphaq/i1 assessed as induction of ectodomain shedding of membrane bound AP-TGFalpha after 1 hr by p-NPP substrate based microplate reader analysis relative to positive control
# Assay type: cell-based
# Assay setup: filed as agonist
Test readout: fold change (FC)

Observe how each entry below is paired with its result.
CCCCCCCCCCCOc1ccccc1CCC(=O)O[C@@H]1COCCC1OP(=O)(O)OC[C@H](N)C(=O)O (single isomer, unassigned)
1.3
CCCCCCCC/C=C\CCCCCCCC(=O)OC[C@@H](COCCC)OP(=O)(O)OC[C@H](N)C(=O)O
17
CCCCCCCC/C=C\CCCCCCCC(=O)OC[C@@H](C)OP(=O)(O)OC[C@H](N)C(=O)O
4.8

P: CCCCCCCCCCCOc1ccccc1CCC(=O)OCCOP(=O)(O)OC[C@H](N)C(=O)O
Q: C[C@H](COC(=O)CCc1ccccc1OCc1cccc(Oc2ccccc2)c1)OP(=O)(O)OC[C@H](N)C(=O)O
R: CCCCCCCC/C=C\CCCCCCCC(=O)O[C@H](C)COP(=O)(O)OC[C@H](N)C(=O)O
Order these by fold change (FC), descending, and give the full ranking. List each label, following the requested order.
Q, R, P
(Q: 11, R: 0.22, P: 0.12)

I: CCCCCCCC/C=C\CCCCCCCC(=O)OC[C@H](COC)OP(=O)(O)OC[C@H](N)C(=O)O
II: CCCCCCCC/C=C\CCCCCCCC(=O)OC[C@@H](COCC)OP(=O)(O)OC[C@H](N)C(=O)O
// select label with min value of measured fold change (FC) from [ I , II ] Respond with the label that goes with your answer.
I
(I: 0.13, II: 29)

----------
# Tested on: Putative P2Y purinoceptor 10 (Mus musculus) (UniProt Q8BFU7)
# Sequence (Q8BFU7 whole entry, the tested form may be a part): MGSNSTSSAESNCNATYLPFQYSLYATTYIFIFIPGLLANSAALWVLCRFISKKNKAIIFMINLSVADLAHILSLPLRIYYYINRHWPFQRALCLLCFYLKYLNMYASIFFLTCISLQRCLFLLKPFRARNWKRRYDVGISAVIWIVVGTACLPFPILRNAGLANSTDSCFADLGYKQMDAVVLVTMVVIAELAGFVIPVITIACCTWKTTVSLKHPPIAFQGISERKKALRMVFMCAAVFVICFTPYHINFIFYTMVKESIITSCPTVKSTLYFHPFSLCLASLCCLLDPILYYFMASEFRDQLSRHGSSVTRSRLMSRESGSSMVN
# Run description: Agonist activity at mouse P2Y10 expressed in HEK293 cells co-transfected with AP-TGFalpha/Galphaq/i1 assessed as induction of ectodomain shedding of membrane bound AP-TGFalpha after 1 hr by p-NPP substrate based microplate reader analysis relative to positive control
# Type: cell-based
# Assay setup: filed as agonist
Test readout: fold change (FC)

Observe how each entry below is paired with its result.
CCCCCCCCCCCOc1ccccc1CCC(=O)O[C@H]1CCOC[C@H]1OP(=O)(O)OC[C@H](N)C(=O)O
0.0012
CCCCCCCCCCCOc1ccccc1CCC(=O)OC1COCCC1OP(=O)(O)OC[C@H](N)C(=O)O (single isomer, unassigned)
0.00079
CCCCCCCCCCCOc1ccccc1CCC(=O)OC1COCC[C@H]1OP(=O)(O)OC[C@H](N)C(=O)O (single isomer, unassigned)
0.039
C[C@H](COC(=O)CCc1ccccc1OCc1cccc(Oc2ccccc2)c1)OP(=O)(O)OC[C@H](N)C(=O)O
0.0056
CCCCCCCC/C=C\CCCCCCCC(=O)OCCOP(=O)(O)OC[C@H](N)C(=O)O
0.02
CCCCCCCCCCCOc1ccccc1CCC(=O)OCCOP(=O)(O)OC[C@H](N)C(=O)O
0.32
CCCCCCCC/C=C\CCCCCCCC(=O)O[C@@H](C)COP(=O)(O)OC[C@H](N)C(=O)O
0.0034
CCCCCCCCCCCOc1ccccc1CCC(=O)O[C@@H]1CCOC[C@@H]1OP(=O)(O)OC[C@H](N)C(=O)O
0.00089

A: CCCCCCCC/C=C\CCCCCCCC(=O)OC[C@@H](C)OP(=O)(O)OC[C@H](N)C(=O)O
B: CCCCCCCC/C=C\CCCCCCCC(=O)OCCCOP(=O)(O)OC[C@H](N)C(=O)O
C: CCCCCCCCCCCOc1ccccc1CCC(=O)O[C@@H]1CCOC[C@H]1OP(=O)(O)OC[C@H](N)C(=O)O
D: CCCCCCCCCCCOc1ccccc1CCC(=O)O[C@@H]1COCCC1OP(=O)(O)OC[C@H](N)C(=O)O (single isomer, unassigned)
Order these by fold change (FC), descending, and give the full ranking. List each label, following the requested order.
C, B, A, D
(C: 1.7, B: 0.11, A: 0.0054, D: 0.0018)

a: CCCCCCCCCCCOc1ccccc1CCC(=O)O[C@H]1CCOC[C@@H]1OP(=O)(O)OC[C@H](N)C(=O)O
b: N[C@@H](COP(=O)(O)OCCOC(=O)CCc1ccccc1OCc1cccc(Oc2ccccc2)c1)C(=O)O
c: CCCCCCCC/C=C\CCCCCCCC(=O)OCCCCOP(=O)(O)OC[C@H](N)C(=O)O
Hey, can you sort those molecules up there by fold change (FC), smallest first? List each label, following the requested order.
b, c, a

Reference source for all entries: ChEMBL document CHEMBL4725358
